Reference source: patent US20100056516A1

System: HeLa P4-2 cell line
experimentalSetup: human
Please use True whenever Cytotoxicity (LD50, μM) is not below 9 µM, and False whenever it is.

| compound | targetSystem | groupLabel |
| --- | --- | --- |
| O=c1cc(NCc2cccc(N3CCOCC3)n2)c2cccnc2n1O [Example 115] | HeLa P4-2 cell line | False |
| O=c1cc(N2CCc3ccc(-c4cccnc4)cc3C2)c2cccnc2n1O [Example 255] | HeLa P4-2 cell line | False |
| O=c1cc(NC2CCCc3ccccc32)c2cccnc2n1O (stereo not shown) [Example 135] | HeLa P4-2 cell line | True |
| O=c1cc(Nc2ccc(-c3ccccc3)cc2)c2cccnc2n1O [Example 106] | HeLa P4-2 cell line | True |
| O=c1cc(NCc2ccccn2)c2cccnc2n1O [Example 149] | HeLa P4-2 cell line | False |
| COC(=O)c1ccc2c(c1)CCN(c1cc(=O)n(O)c3ncccc13)C2 [Example 121] | HeLa P4-2 cell line | True |
| O=c1cc(NCc2cccc(CN3CCOCC3)c2)c2cccnc2n1O [Example 151] | HeLa P4-2 cell line | True |
| O=c1cc(NCc2ccc(CN3CCOCC3)cc2)c2cccnc2n1O [Example 111] | HeLa P4-2 cell line | True |
| O=c1cc(NC2CCc3ccccc32)c2cccnc2n1O (stereo not shown) [Example 134] | HeLa P4-2 cell line | True |
| NCc1ccccc1CNc1cc(=O)n(O)c2ncccc12 [Example 163] | HeLa P4-2 cell line | True |
| CCOC(=O)c1c(O)c2cc(-c3cccc(O)c3)cnc2n(O)c1=O [Example 59] | HeLa P4-2 cell line | True |
| CN(C)CCC(Nc1cc(=O)n(O)c2ncccc12)c1ccccc1 (stereo not shown) [Example 158] | HeLa P4-2 cell line | True |
| COc1ccccc1CNc1cc(=O)n(O)c2ncccc12 [Example 142] | HeLa P4-2 cell line | False |
| CCOC(=O)c1c(O)c2cc(C(=O)N(C)CCc3ccccc3)cnc2n(O)c1=O [Example 81] | HeLa P4-2 cell line | True |
| COc1cccc(-c2c(O)c3cccnc3n(O)c2=O)c1 [Example 40] | HeLa P4-2 cell line | True |
| CCOC(=O)c1c(O)c2cc(-c3cccc(CN4CCOCC4)c3)cnc2n(O)c1=O [Example 57] | HeLa P4-2 cell line | True |
| O=c1c(-c2ccccc2)c(O)c2cc(F)cnc2n1O [Example 48] | HeLa P4-2 cell line | True |
| O=c1c(-c2cccc(C(F)(F)F)c2)c(O)c2cccnc2n1O [Example 28] | HeLa P4-2 cell line | True |
| O=c1cc(Cc2ccc(CCc3ccc(F)cc3F)cc2)c2cccnc2n1O [Example 236] | HeLa P4-2 cell line | True |
| O=c1cc(Nc2ccccc2N2CCOCC2)c2cccnc2n1O [Example 147] | HeLa P4-2 cell line | False |
| CCOC(=O)c1c(O)c2c(-c3cccc(CN(C)C)c3)ccnc2n(O)c1=O [Example 230] | HeLa P4-2 cell line | True |
| CCOC(=O)c1ccnc2c1c(-c1ccc(-c3ccc(CN)cc3)cc1)cc(=O)n2O [Example 241] | HeLa P4-2 cell line | False |
| NCc1cccc(-c2cc(=O)n(O)c3ncccc23)c1 [Example 172] | HeLa P4-2 cell line | False |
| COc1ccc(CNc2cc(=O)n(O)c3ncccc23)cc1 [Example 140] | HeLa P4-2 cell line | False |
| CN1CCN(Cc2cccc(CNc3cc(=O)n(O)c4ncccc34)c2)CC1 [Example 150] | HeLa P4-2 cell line | True |
| O=c1cc(NC2CCN(c3ccccc3)CC2)c2cccnc2n1O [Example 154] | HeLa P4-2 cell line | False |
| C[C@H](Nc1cc(=O)n(O)c2ncccc12)c1ccccc1 [Example 124] | HeLa P4-2 cell line | True |
| NCc1ccc(-c2ccc3c(c2)CN(c2cc(=O)n(O)c4ncccc24)C3)cc1 [Example 257] | HeLa P4-2 cell line | True |
| CCOC(=O)c1c(O)c2c(-c3ccccc3)ccnc2n(O)c1=O [Example 4] | HeLa P4-2 cell line | True |
| NCc1cccc(-c2cccc(Cc3cc(=O)n(O)c4ncccc34)c2)c1 [Example 231] | HeLa P4-2 cell line | True |
| CNC(=O)c1c(O)c2cccnc2n(O)c1=O [Example 24] | HeLa P4-2 cell line | True |
